Provide the reported abundance fitness of each item.
B1: POU domain, class 3, transcription factor 2, residues 356 to 411; numbered along this chain, P20265 (parent)
chain: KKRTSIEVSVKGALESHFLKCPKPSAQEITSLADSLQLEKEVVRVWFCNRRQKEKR

variants of: B1; experiment: abundance fitness (aPCA) (normalised: wild type 0, dead -1); higher = more abundant; growth selection in yeast, the domain comes from the species named; conditions: Homo sapiens
One number for each entry.

Use these answered entries as a reference point.
C48W : -0.007
P22G : -0.46
V45I : 0.01
R44H : -0.127
I29R : -0.93
C21A : -0.304

State the recorded abundance fitness for every item in the following list.
1. E7V
2. L38W
3. L14E

-0.21
-0.804
-0.794
